targetOrTestSystem: T1, secretory phospholipase A2 (sPLA2) (Homo sapiens, UniProt P14555 P14555:21-144)
T1 sequence: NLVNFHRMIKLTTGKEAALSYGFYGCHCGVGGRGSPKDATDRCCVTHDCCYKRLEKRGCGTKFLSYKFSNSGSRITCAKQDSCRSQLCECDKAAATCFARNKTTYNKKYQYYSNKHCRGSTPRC
experimentDescription: filter; TBSC, 37 C
details: tags: supplied by Eli Lilly
measuredMetric: Kd (nM)
Give bare numbers, in nM.

[[record]]
binder = "NS6 (ssRNA, 2'-NH2 all C and U) RNA: GGGAGGACGAUGCGGAACUAAAAGACAGAGAGAAAACGACAAUACGAAGUACAUAUAACCCUGGCCAGACGACUCGCCCGA"
obsvalue = 28


Parameter requested: Kd. Apply to each item below.
1. NS1 (ssRNA, 2'-NH2 all C and U) RNA: GGGAGGACGAUGCGGAUAAGGAGGAGCAAGCGAGAAAUUGAGAAGUAACAAGAUCGACAUGGCCCCAGACGACUCGCCCGA
2. NN19.14 (ssRNA, 2'-NH2 all C and U) RNA: GGGAAAAGAAGACCGGCCGGCGCCAUAGCCGAGAUCCGAGGUGUUGAACGAUCCGAGAA
3. NN1 (ssRNA, 2'-NH2 all C and U) RNA: GGGAAAAGCGAAUCAUACACAAGACGGCGAGCAUGCGGCGAGUGGAGGGGGACUGAUGGAGGGCGAGACCGUGUGCUCCGCCAGAGACCAACCGAGAA
4. NS4 (ssRNA, 2'-NH2 all C and U) RNA: GGGAGGACGAUGCGGGUAGGGAUAAGCGAGUGUACAGCGAAUACGACUCGGAAUGCUUGGUGCGCCAGACGACUCGCCCGA

output:
1. 42
2. 1
3. 21
4. 24
